Data origin: ChEMBL document CHEMBL1139875

Tested on: Rattus norvegicus
Experiment: Anti-dynamic allodynia effect in Sprague-Dawley rat SNL model assessed as latency to paw withdrawal 100 mg/kg, ip after 2.5 hrs
Format: functional
Details: route intraperitoneal

[
  {
    "MOLECULE": "C/C(=N\\NC(=O)NCCCC(=O)O)c1ccc(C)cc1",
    "Activity, s": 12.02
  },
  {
    "MOLECULE": "Nc1nnc(-c2cccc(Cl)c2Cl)c(N)n1 [LAMOTRIGINE]",
    "Activity, s": 0.64
  },
  {
    "MOLECULE": "NCC1(CC(=O)O)CCCCC1 [GABAPENTIN]",
    "Activity, s": 6.53
  },
  {
    "MOLECULE": "C/C(=N\\NC(=O)NCCCC(=O)O)c1ccccc1",
    "Activity, s": 11.88
  },
  {
    "MOLECULE": "O=C(O)CCCNC(=O)NN=C1CCCCC1",
    "Activity, s": 0.24
  },
  {
    "MOLECULE": "NC(=O)N1c2ccccc2C=Cc2ccccc21 [CARBAMAZEPINE]",
    "Activity, s": 1.65
  },
  {
    "MOLECULE": "O=C(O)CCCNC(=O)N/N=C(\\c1ccccc1)c1ccc(Br)cc1",
    "Activity, s": 10.23
  },
  {
    "MOLECULE": "O=C(O)CCCNC(=O)N/N=C/c1ccc(Cl)cc1",
    "Activity, s": 0.35
  },
  {
    "MOLECULE": "O=C(O)CCCNC(=O)N/N=C/c1ccccc1O",
    "Activity, s": 11.32
  },
  {
    "MOLECULE": "CN(C)c1ccc(/C=N/NC(=O)NCCCC(=O)O)cc1",
    "Activity, s": 1.82
  },
  {
    "MOLECULE": "O=C(O)CCCNC(=O)NN=C1CCCC1",
    "Activity, s": 10.92
  },
  {
    "MOLECULE": "O=C(O)CCCNC(=O)N/N=C/c1ccc([N+](=O)[O-])cc1",
    "Activity, s": 1.34
  }
]
